# key: entry, value: protein stability index
B1: HESX1 (parent)
chain: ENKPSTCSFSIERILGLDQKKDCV

- Variants of: B1
- protocol_text: protein stability index of a GFP-peptide fusion (GPS, HEK-293T) (PSI 1-6); higher = more stable;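 also: lentivirally expressed fusions sorted by FACS into six bins by GFP to DsRed ratio, PSI derived from sequencing read proportions per bin multiplied by bin number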
- assay_setup: c terminus: a fixed tail appended
A bare number is all that is needed in reply.

Task: Supply protein stability index value. Item: D22V
Result: 1.56

Task: Supply protein stability index value. Item: C7Y
Result: 3.43

Task: Supply protein stability index value. Item: E12K
Result: 2.86

Task: Supply protein stability index value. Item: I11H
Result: 3.7

Task: Supply protein stability index value. Item: E1Q
Result: 2.28

Task: Supply protein stability index value. Item: E1G
Result: 2.32

Task: Supply protein stability index value. Item: L15N
Result: 3.73

Task: Supply protein stability index value. Item: S5I
Result: 3.02
